Ref: patent US9351955B2

# Target under test: CFTR ΔF508 mutant (Homo sapiens, UniProt P13569, DEL508-508)
# Construct: expressed in transfected cells; host or cells: CFBE41o- (adenoviral transduction)
# Method description: YFP-halide influx assay for the CFTR-ΔF508 mutation (96 well, CFBE41o- cells)
# Format: cell-based
# Experimental setup: comparative compounds, read-out: EC50 measured by YFP-halide influx assay for the CFTR-ΔF508
Measurement type: EC50 (nM)

A: NC(=O)c1c(NC(=O)c2cc[nH]n2)sc2c1CCOC2 [E, reference compound]
B: NC(=O)c1c(NC(=O)c2ccccc2O)sc2c1CCOC2 [D, reference compound]
Q. Between the two listed entries A and B , which has its EC50 at the higher number? Output the label that corresponds to your choice.
A. A
(A: 479 nM, B: 156 nM)

* * *

# Target under test: CFTR ΔF508 (Homo sapiens, UniProt P13569, DEL508-508)
# Construct: host or cells: primary bronchial epithelial cells from CF patients homozygous for ΔF508, pre-treated with VX809
# Sequence (P13569 with tags, fused parts or gaps DEL508-508): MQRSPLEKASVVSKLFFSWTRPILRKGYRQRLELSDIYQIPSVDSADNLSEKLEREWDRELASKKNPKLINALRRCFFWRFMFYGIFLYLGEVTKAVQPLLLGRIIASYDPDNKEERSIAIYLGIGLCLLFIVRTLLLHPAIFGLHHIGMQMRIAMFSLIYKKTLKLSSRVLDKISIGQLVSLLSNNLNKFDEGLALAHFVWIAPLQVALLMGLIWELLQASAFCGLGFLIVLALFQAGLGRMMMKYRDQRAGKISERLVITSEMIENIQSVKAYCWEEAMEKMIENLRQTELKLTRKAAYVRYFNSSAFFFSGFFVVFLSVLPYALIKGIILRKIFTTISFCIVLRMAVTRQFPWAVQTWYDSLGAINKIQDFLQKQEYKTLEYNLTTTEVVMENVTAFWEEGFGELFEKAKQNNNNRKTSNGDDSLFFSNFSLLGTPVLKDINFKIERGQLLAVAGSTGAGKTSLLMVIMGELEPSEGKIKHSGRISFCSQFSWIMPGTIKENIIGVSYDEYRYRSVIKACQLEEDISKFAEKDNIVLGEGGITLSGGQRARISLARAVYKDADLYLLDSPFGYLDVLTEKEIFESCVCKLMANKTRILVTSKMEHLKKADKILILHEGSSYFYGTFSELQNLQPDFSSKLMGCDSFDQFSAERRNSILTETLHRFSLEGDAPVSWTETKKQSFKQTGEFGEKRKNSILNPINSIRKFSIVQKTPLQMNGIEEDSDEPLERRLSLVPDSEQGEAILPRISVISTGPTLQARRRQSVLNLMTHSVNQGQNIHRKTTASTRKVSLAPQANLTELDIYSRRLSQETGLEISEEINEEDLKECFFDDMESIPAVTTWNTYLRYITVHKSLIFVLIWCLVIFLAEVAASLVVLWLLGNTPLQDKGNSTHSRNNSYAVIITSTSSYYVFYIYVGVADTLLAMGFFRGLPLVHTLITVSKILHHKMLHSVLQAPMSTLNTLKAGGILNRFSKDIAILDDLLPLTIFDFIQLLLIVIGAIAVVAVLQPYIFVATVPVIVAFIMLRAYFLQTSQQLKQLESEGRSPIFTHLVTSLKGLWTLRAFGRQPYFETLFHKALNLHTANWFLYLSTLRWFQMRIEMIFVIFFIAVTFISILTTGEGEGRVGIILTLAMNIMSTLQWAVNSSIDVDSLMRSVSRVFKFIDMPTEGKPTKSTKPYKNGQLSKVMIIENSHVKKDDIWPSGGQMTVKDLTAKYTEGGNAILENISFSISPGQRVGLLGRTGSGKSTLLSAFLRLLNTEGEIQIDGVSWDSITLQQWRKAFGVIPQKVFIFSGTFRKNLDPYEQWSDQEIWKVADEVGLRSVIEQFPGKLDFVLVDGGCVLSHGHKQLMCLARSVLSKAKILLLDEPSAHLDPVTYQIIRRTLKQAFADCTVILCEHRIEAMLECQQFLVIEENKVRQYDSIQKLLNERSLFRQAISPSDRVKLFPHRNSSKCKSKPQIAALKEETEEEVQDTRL
# Method description: TECC assay, primary bronchial epithelial cells from CF patients homozygous for CFTR ΔF508
# Type: cell-based
# Experimental setup: TECC assay, compound at 200 nM (Table XVI)
Measurement type: ΔIsc (μA/cm^2)

[
  {
    "Compound": "CC1(C)Cc2c(sc(NC(=O)c3ccn[nH]3)c2C(N)=O)C(C)(C)O1",
    "Target under test": "CFTR ΔF508 (Homo sapiens, UniProt P13569, DEL508-508)",
    "Recorded measurement": 5.0457
  }
]

P: CN1CCc2c(sc(NC(=O)c3ccccc3O)c2C(N)=O)C1 [A, reference compound]
Q: NC(=O)c1c(NC(=O)c2cc[nH]n2)sc2c1CCOC2 [E, reference compound]
R: NC(=O)c1c(NC(=O)c2ccccc2Cl)sc2c1CCCC2 [B, reference compound]
Q. Hi! Can you put these in order of ΔIsc, lowest number first? Your reply should list the labels following the order given in the request.
A. P, Q, R

* * *

# Target under test: CFTR ΔF508 mutant (Homo sapiens, UniProt P13569, DEL508-508)
# Construct: expressed in transfected cells; host or cells: CFBE41o- (adenoviral transduction)
# Method description: YFP-halide influx assay for the CFTR-ΔF508 mutation (384 well, CFBE41o- cells, FDSS/μCell)
# Type: cell-based
# Experimental setup: forskolin 10.67 μM, fluorescence after 36 seconds, read-out: EC50 measured by YFP-halide influx assay for the CFTR-ΔF508
pEC50: −log10 of the molar value.
Measurement type: pEC50

# annotated cases, reported pEC50 shown
[
  {
    "Compound": "CC1(C)Cc2c(sc(NC(=O)C3(C)COC3)c2C(N)=O)C(C)(C)O1 [Compound 147]",
    "Target under test": "CFTR ΔF508 mutant (Homo sapiens, UniProt P13569, DEL508-508)",
    "pEC50": 6.77
  },
  {
    "Compound": "CC(C)OCCOc1c[nH]nc1C(=O)Nc1sc2c(c1C(N)=O)CC(C)(C)OC2(C)C [Compound 101]",
    "Target under test": "CFTR ΔF508 mutant (Homo sapiens, UniProt P13569, DEL508-508)",
    "pEC50": 7.57
  },
  {
    "Compound": "CC1(C)Cc2c(sc(NC(=O)c3ccnn3C(F)F)c2C(N)=O)C(C)(C)O1 [Compound 115]",
    "Target under test": "CFTR ΔF508 mutant (Homo sapiens, UniProt P13569, DEL508-508)",
    "pEC50": 7.21
  },
  {
    "Compound": "CC1(C)Cc2c(sc(NC(=O)C3CCOC3)c2C(N)=O)C(C)(C)O1 (centres unmarked) [Compound 163]",
    "Target under test": "CFTR ΔF508 mutant (Homo sapiens, UniProt P13569, DEL508-508)",
    "pEC50": 6.20
  },
  {
    "Compound": "CC(C)(C)CC(O)C(=O)Nc1sc2c(c1C(N)=O)CC(C)(C)OC2(C)C (centres unmarked) [Compound 106]",
    "Target under test": "CFTR ΔF508 mutant (Homo sapiens, UniProt P13569, DEL508-508)",
    "pEC50": 9.27
  }
]

A: CC1(C)Cc2c(sc(NC(=O)C3CCOCC3)c2C(N)=O)C(C)(C)O1 [Compound 158]
B: CC1(C)Cc2c(sc(NC(=O)[C@](C)(O)C(F)(F)F)c2C(N)=O)C(C)(C)O1 [Compound 152]
C: CC1(C)Cc2c(sc(NC(=O)c3cc(C4CC4)[nH]n3)c2C(N)=O)C(C)(C)O1 [Compound 13]
D: COCCOc1c[nH]nc1C(=O)Nc1sc2c(c1C(N)=O)CC(C)(C)OC2(C)C [Compound 100]
E: CC1(C)Cc2c(sc(NC(=O)c3n[nH]c4ncccc34)c2C(N)=O)C(C)(C)O1 [Compound 157]
Q. Hi! Can you put these in order of pEC50, lowest number first? Your reply should list the labels following the order given in the request.
A. A, D, E, B, C

* * *

# Target under test: CFTR ΔF508 (Homo sapiens, UniProt P13569, DEL508-508)
# Construct: host or cells: primary bronchial epithelial cells from CF patients homozygous for ΔF508, pre-treated with VX809
# Method description: TECC assay, primary bronchial epithelial cells from CF patients homozygous for CFTR ΔF508
# Format: cell-based
# Experimental setup: TECC assay, compound at 100 nM (Table XVI)
Measurement type: ΔIsc (μA/cm^2)

a: NC(=O)c1c(NC(=O)c2ccccc2Cl)sc2c1CCCC2 [B, reference compound]
b: CN1CCc2c(sc(NC(=O)c3ccccc3O)c2C(N)=O)C1 [A, reference compound]
Q. Hi, I'm comparing two records. Which one has the lower ΔIsc, a or b ? Output the label that corresponds to your choice.
A. b

a: NC(=O)c1c(NC(=O)c2cc[nH]n2)sc2c1CCOC2 [E, reference compound]
b: CC1(C)Cc2c(sc(NC(=O)c3ccn[nH]3)c2C(N)=O)C(C)(C)O1 [Compound 2]
Q. Hi, I'm comparing two records. Which one has the lower ΔIsc, a or b ? Output the label that corresponds to your choice.
A. a

* * *

# Target under test: CFTR ΔF508 mutant (Homo sapiens, UniProt P13569, DEL508-508)
# Construct: expressed in transfected cells; host or cells: CFBE41o- (adenoviral transduction)
# Method description: YFP-halide influx assay for the CFTR-ΔF508 mutation (96 well, CFBE41o- cells)
# Assay type: cell-based
# Experimental setup: compounds of the invention, 96 well, forskolin 10.67 μM, read-out: EC50 measured by YFP-halide influx assay for the CFTR-ΔF508
Measurement type: EC50 (nM)

# annotated cases, reported EC50 shown
[
  {
    "Molecule": "CN1CCc2[nH]nc(C(=O)Nc3sc4c(c3C(N)=O)CC(C)(C)OC4(C)C)c2C1",
    "Display unit": "nM",
    "EC50": 354
  },
  {
    "Molecule": "Cc1cc(C(=O)Nc2sc3c(c2C(N)=O)CC(C)(C)OC3(C)C)[nH]n1",
    "Display unit": "nM",
    "EC50": 27.2
  },
  {
    "Molecule": "CCc1[nH]nc(C(=O)Nc2sc3c(c2C(N)=O)CC(C)(C)OC3(C)C)c1Cl",
    "Display unit": "nM",
    "EC50": 13
  },
  {
    "Molecule": "CC1(C)Cc2c(sc(NC(=O)c3cccnc3F)c2C(N)=O)C(C)(C)O1",
    "Display unit": "nM",
    "EC50": 305
  }
]

1: CCc1cc(C(=O)Nc2sc3c(c2C(N)=O)CC(C)(C)OC3(C)C)n[nH]1
2: CC1(C)Cc2c(sc(NC(=O)c3ccc(F)cc3F)c2C(N)=O)C(C)(C)O1
Q. Hi, I'm comparing two records. Which one has the lower EC50, 1 or 2 ? Output the label that corresponds to your choice.
A. 1

* * *

# Target under test: CFTR-S549N (Homo sapiens, UniProt P13569, S549N)
# Sequence (P13569 whole entry S549N): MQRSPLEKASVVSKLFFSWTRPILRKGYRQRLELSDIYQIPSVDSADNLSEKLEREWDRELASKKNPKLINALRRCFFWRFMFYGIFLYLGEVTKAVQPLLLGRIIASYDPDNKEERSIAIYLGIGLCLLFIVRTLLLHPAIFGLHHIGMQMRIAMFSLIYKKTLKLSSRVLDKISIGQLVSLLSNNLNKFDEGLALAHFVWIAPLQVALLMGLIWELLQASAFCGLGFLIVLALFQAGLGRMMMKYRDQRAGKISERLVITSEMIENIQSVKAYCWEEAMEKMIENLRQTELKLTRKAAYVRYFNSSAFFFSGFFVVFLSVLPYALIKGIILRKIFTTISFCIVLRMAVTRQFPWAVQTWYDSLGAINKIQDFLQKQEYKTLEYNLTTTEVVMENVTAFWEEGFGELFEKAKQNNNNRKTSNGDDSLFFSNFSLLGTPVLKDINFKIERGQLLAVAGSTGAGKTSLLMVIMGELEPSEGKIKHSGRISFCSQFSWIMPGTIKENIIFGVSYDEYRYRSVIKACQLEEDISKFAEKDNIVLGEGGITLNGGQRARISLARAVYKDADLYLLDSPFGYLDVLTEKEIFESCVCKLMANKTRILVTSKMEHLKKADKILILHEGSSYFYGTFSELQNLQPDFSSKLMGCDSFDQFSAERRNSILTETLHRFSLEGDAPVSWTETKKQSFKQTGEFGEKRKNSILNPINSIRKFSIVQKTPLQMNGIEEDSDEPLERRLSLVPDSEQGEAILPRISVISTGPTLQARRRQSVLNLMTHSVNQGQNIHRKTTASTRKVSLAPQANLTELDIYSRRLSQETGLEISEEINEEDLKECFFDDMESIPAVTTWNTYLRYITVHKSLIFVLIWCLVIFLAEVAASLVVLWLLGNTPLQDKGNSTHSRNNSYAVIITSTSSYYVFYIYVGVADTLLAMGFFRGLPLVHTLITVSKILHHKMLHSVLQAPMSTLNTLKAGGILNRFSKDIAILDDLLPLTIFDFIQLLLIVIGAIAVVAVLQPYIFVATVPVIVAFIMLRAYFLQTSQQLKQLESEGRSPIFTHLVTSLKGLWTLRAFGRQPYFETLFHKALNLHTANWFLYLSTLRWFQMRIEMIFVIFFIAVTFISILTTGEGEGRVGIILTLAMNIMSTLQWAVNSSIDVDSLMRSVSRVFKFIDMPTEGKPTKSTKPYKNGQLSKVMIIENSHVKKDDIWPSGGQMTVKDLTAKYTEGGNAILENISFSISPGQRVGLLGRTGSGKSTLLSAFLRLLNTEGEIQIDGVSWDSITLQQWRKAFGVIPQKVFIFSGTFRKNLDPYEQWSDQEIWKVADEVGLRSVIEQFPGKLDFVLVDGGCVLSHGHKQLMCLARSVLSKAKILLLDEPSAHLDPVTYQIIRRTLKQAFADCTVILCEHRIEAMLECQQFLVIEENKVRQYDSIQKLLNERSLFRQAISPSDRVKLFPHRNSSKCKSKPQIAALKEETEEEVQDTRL
# Method description: YFP-halide influx assay for the CFTR-S549N
# Experimental setup: CFTR-S549N mutant; read-out: EC50 measured by YFP-halide influx assay for the CFTR-S549N
# Method: The YFP halide influx assay measures the functionality of the cystic fibrosis Transmembrane Conductance regulator (CFTR) channels. […] It makes use of the observation that the yellow fluorescent protein (YFP) variant YFP H148Q, I152L, F47L has its fluorescence substantially quenched by halide ions like Cl^− and I^−. […] The I^−-induced quenching of fluorescence is recorded immediately after injection of I^− for 7 seconds. […]
pEC50: −log10 of the molar value.
Measurement type: pEC50

# annotated cases, reported pEC50 shown
[
  {
    "Compound": "CC1(C)Cc2c(sc(NC(=O)c3ccnn3CC(F)(F)F)c2C(N)=O)C(C)(C)O1",
    "pEC50": 5.48
  },
  {
    "Compound": "CC(C)C(O)C(=O)Nc1sc2c(c1C(N)=O)CC(C)(C)OC2(C)C (single isomer, unassigned) [Compound 52]",
    "pEC50": 7.06
  },
  {
    "Compound": "Cc1cn[nH]c1C(=O)Nc1sc2c(c1C(N)=O)CC(C)(C)OC2(C)C",
    "pEC50": 6.92
  },
  {
    "Compound": "CC1(C)Cc2c(sc(NC(=O)c3ccn[nH]3)c2C(N)=O)C(C)(C)O1",
    "pEC50": 6.68
  },
  {
    "Compound": "CC(C)(C)CC(O)C(=O)Nc1sc2c(c1C(N)=O)CC(C)(C)OC2(C)C (single isomer, unassigned) [Compound 110]",
    "pEC50": 6.58
  }
]

a: CC1(C)Cc2c(sc(NC(=O)c3cc(C(F)(F)F)[nH]n3)c2C(N)=O)C(C)(C)O1
b: COCCOc1cc(C(=O)Nc2sc3c(c2C(N)=O)CC(C)(C)OC3(C)C)n[nH]1
Q. Between the two listed entries a and b , which has its pEC50 at the higher number? Output the label that corresponds to your choice.
A. b
(b: 6.97, a: 6.68)
